Sourced from patent US9789181B2

Target: purified HLA DRB1 *0405 (Homo sapiens, UniProt P01903+P01911, A100R/A169T/D86S/F76Y/I96L/K127E/L162R/M171V/N62H/P40V/Q125Y/R42H/S133A/S149N/S66Y/V115G/V209L/W38E)
Assay: IC50nM to purified HLA | DRB1 *0405
pIC50: −log10 of the molar value. Where no end group is shown, it is not given here.

sequenceChain	pIC50
AAAFFVAAYTLKADA [SEQ ID NO: 17]	7.48
AAAYFVAAYTLHAAA [SEQ ID NO: 22]	8.14
AAAYFVAAWTLHAAA [SEQ ID NO: 21]	8.16
AAAFFVAAWTLKADA [SEQ ID NO: 16]	7.66
AAAYFVAAFTLHAAA [SEQ ID NO: 23]	8.36
AAAFFVAANTLKADA [SEQ ID NO: 19]	8.02
AAAFFVAAYTLHAAA [SEQ ID NO: 13]	7.72
AAAYFVAAWTLKAAA [SEQ ID NO: 20]	8.18
AAAFFVAAFTLKADA [SEQ ID NO: 18]	8.08
AAAWFVAAYTLHAAA [SEQ ID NO: 8]	7.62
AAAKFVAAWTLKAAA [SEQ ID NO: 4]	7.60
